B1: F1*; the commonest letter at each place (parent)
chain: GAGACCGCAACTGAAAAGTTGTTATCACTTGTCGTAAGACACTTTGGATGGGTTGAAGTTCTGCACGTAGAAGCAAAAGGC

variants of: B1; test: fraction ligated after 30 min (ligated reads / total reads); higher = more ligase activity; conditions: with F1*sub RNA substrate (template-directed ligation), 42 °C
PROPERTY_NAME: fraction ligated
// no unit, no text: just the number

A selection of reference data follows.
>  <MUTATION_NOTATION>
A27C G34A

>  <PROPERTY_NAME>
fraction ligated

>  <RESULT_VALUE>
0.809

$$$$
>  <MUTATION_NOTATION>
A37C A41T

>  <PROPERTY_NAME>
fraction ligated

>  <RESULT_VALUE>
0.816

$$$$
>  <MUTATION_NOTATION>
C26T G47C

>  <PROPERTY_NAME>
fraction ligated

>  <RESULT_VALUE>
0.0296

$$$$
>  <MUTATION_NOTATION>
A41T A57T

>  <PROPERTY_NAME>
fraction ligated

>  <RESULT_VALUE>
0.808

$$$$

(Q) What fraction ligated value was documented for this variant, T22C ?
(A) 0.819

(Q) What fraction ligated value was documented for this variant, G46C A57G ?
(A) 0.712

(Q) What fraction ligated value was documented for this variant, G31C A36G ?
(A) 0.682

(Q) What fraction ligated value was documented for this variant, G31T G46T ?
(A) 0.769

(Q) What fraction ligated value was documented for this variant, T23C A41G ?
(A) 0.784

(Q) What fraction ligated value was documented for this variant, C26G G34T ?
(A) 0.718
